# TEST_SYSTEM: KRAS-G12D (Homo sapiens, UniProt P01116, G12D)
# Construct: endogenous in cells; host or cells: A-427 (ATCC), AGS, AsPc-1, Panc 04.03
# Sequence (P01116 1-188 isoform P01116-2 G12D): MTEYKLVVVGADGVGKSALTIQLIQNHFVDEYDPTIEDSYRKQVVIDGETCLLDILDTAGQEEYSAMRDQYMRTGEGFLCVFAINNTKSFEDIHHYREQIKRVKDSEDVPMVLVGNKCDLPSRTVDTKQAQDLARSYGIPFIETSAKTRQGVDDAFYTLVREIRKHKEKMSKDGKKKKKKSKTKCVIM
# PROTOCOL_DETAILS: KRAS-G12D degradation assay (Western Blot), A-427 cells
# Type: cell-based
# COND: A427 cells, 24 h; class symbols
Below is a list of entries, each paired with its recorded DC50 value.

[
  {
    "COMPOUND": "C#Cc1c(F)ccc2cc(O)cc(-c3ncc4c(N5CC6CCC(C5)N6)nc(OCC5(CN6CCN(CC7CCC8(CC7)CCN(C(=O)c7ccc(F)c(N9CCC(=O)NC9=O)c7)CC8)CC6)CC5)nc4c3F)c12 [Example 48]",
    "DC50": "≤ 50 nM"
  }
]

input: May I ask what DC50 has been recorded for C#Cc1c(F)ccc2cc(O)cc(-c3ncc4c(N5CC6CCC(C5)N6)nc(OC[C@@H]5CCCN5CCCC5CCN(C(=O)c6ccc(Cl)c(N7CCC(=O)NC7=O)c6)CC5)nc4c3F)c12 [Example 9] ?
output: 1000 to 10000 nM

input: Now consider C#Cc1c(F)ccc2cc(O)cc(-c3ncc4c(N5CC6CCC(C5)N6)nc(OCC5(CN6CCN(CC7CCC8(CC7)CCN(C(=O)c7ccc(C)c(N9CCC(=O)NC9=O)c7)CC8)CC6)CC5)nc4c3F)c12 [Example 36] .
output: ≤ 50 nM

input: Now consider C#Cc1c(F)ccc2cc(O)cc(-c3ncc4c(N5CC6CCC(C5)N6)nc(OCC5(CN6CCN(CCC7CC8(CCN(C(=O)c9ccc(OC)c(N%10CCC(=O)NC%10=O)c9)CC8)C7)CC6)CC5)nc4c3F)c12 [Example 43] .
output: ≤ 50 nM

input: Now consider C#Cc1c(F)ccc2cc(O)cc(-c3ncc4c(N5CC6CCC(C5)N6)nc(OCC5(CN6CCN(CC7CCC8(CC7)CCN(C(=O)c7ccc(Cl)c(N9CCC(=O)NC9=O)c7)CC8)CC6)CC5)nc4c3F)c12 [Example 6] .
output: ≤ 50 nM

input: Now consider C#Cc1c(F)ccc2cc(O)cc(-c3ncc4c(N5CC6CCC(C5)N6)nc(OCC5(CN6CCN(CCCC7CCN(C(=O)c8ccc(Cl)c(N9CCC(=O)NC9=O)c8)CC7)CC6)CC5)nc4c3F)c12 [Example 4] .
output: ≤ 50 nM

input: Now consider C#Cc1c(F)ccc2cc(O)cc(-c3ncc4c(N5CC6CCC(C5)N6)nc(OCC5(CN6CC7CCC(C6)N7CC6CCC7(CC6)CCN(C(=O)c6ccc(Cl)c(N8CCC(=O)NC8=O)c6)CC7)CC5)nc4c3F)c12 [Example 58] .
output: ≤ 50 nM

input: Now consider CCc1cccc2cc(O)cc(-c3ncc4c(N5CC6CCC(C5)N6)nc(OC[C@@H]5CCCN5CCC5CCN(CCC(=O)N[C@H](C(=O)N6C[C@H](O)C[C@H]6C(=O)NCc6ccc(-c7scnc7C)cc6)C(C)(C)C)CC5)nc4c3F)c12 [Example 34] .
output: 1000 to 10000 nM

input: Now consider C#Cc1c(F)ccc2cc(O)cc(-c3ncc4c(N5CC6CCC(C5)N6)nc(OCC5(CN6CCC(COCCC7CCN(C(=O)c8ccc(Cl)c(N9CCC(=O)NC9=O)c8)CC7)CC6)CC5)nc4c3F)c12 [Example 21] .
output: ≤ 50 nM

###

# TEST_SYSTEM: KRAS-G12D (Homo sapiens, UniProt P01116, G12D)
# Construct: endogenous in cells; host or cells: A-427 (ATCC), AGS, AsPc-1, Panc 04.03
# PROTOCOL_DETAILS: KRAS-G12D degradation assay (Western Blot), AsPc-1 cells
# Assay type: cell-based
# COND: ASPC1, 24 h
Below is a list of entries, each paired with its recorded Dmax value.

input: Provide the documented Dmax with KRAS-G12D (Homo sapiens, UniProt P01116, G12D) as the system for CCc1c(F)ccc2cc(O)cc(-c3ccc4c(N5CC6CCC(C5)N6)nc(OCC5(CN6CCN(CC7CCC8(CC7)CCN(C(=O)c7ccc(OC)c(N9CCC(=O)NC9=O)c7)CC8)CC6)CC5)nc4c3F)c12
output: 100%

input: Now consider CCc1cccc2cc(O)cc(-c3ncc4c(N5CC6CCC(C5)N6)nc(OCC5(CN6CCN(CC7CCC8(CC7)CCN(C(=O)c7ccc(OC)c(N9CCC(=O)NC9=O)c7)CC8)CC6)CC5)nc4c3F)c12 .
output: 100%

input: Now consider C#Cc1c(F)ccc2cc(O)cc(-c3ccc4c(N5CC6CCC(C5)N6)nc(OCC5(CN6CCN(CC7CCC8(CC7)CCN(C(=O)c7ccc(C)c(N9CCC(=O)NC9=O)c7)CC8)CC6)CC5)nc4c3F)c12 .
output: 100%

###

# TEST_SYSTEM: KRAS-G12D (Homo sapiens, UniProt P01116, G12D)
# Construct: endogenous in cells; host or cells: A-427 (ATCC), AGS, AsPc-1, Panc 04.03
# PROTOCOL_DETAILS: KRAS-G12D degradation assay (Western Blot), A-427 cells
# Type: cell-based
# COND: A427 cells, 24 h; class symbols
Below is a list of entries, each paired with its recorded DC50 value.

input: May I ask what DC50 has been recorded for CCc1c(F)ccc2cc(O)cc(-c3ncc4c(N5CC6CCC(C5)N6)nc(OCC5(CN6CCN(CC7CCC8(CC7)CCN(C(=O)c7ccc(C)c(N9CCC(=O)NC9=O)c7)CC8)CC6)CC5)nc4c3F)c12 ?
output: ≤ 50 nM

input: Now consider C#Cc1c(F)ccc2cc(O)cc(-c3ncc4c(N5CC6CCC(C5)N6)nc(OCC5(CN6CCN(CC7CCC8(CC7)CCN(C(=O)c7ccc(OC)c(N9CCC(=O)NC9=O)c7)CC8)CC6)CC5)nc4c3F)c12 .
output: ≤ 50 nM

input: Now consider CCc1cccc2cc(O)cc(-c3ncc4c(N5CC6CCC(C5)N6)nc(NCC5(CN6CCN(CC7CCC8(CC7)CCN(C(=O)c7ccc(Cl)c(N9CCC(=O)NC9=O)c7)CC8)CC6)CC5)nc4c3F)c12 .
output: 100 to 500 nM

input: Now consider C#Cc1c(F)ccc2cc(O)cc(-c3ncc4c(N5CC6CCC(C5)N6)nc(OCC5(CN6CCN(CCC7CCC8(CC7)CCN(C(=O)c7ccc(Cl)c(N9CCC(=O)NC9=O)c7)CC8)CC6)CC5)nc4c3F)c12 .
output: ≤ 50 nM

input: Now consider C#Cc1c(F)ccc2cc(O)cc(-c3ncc4c(N5CC6CCC(C5)N6)nc(OCC5(CN6CCN(CCCC7CCN(C(=O)c8ccc(OC)c(N9CCC(=O)NC9=O)c8)CC7)CC6)CC5)nc4c3F)c12 .
output: ≤ 50 nM

###

# Test system: KRAS G12D mutant human gastric cancer cell AGS
# PROTOCOL_DETAILS: 3D cell proliferation inhibition assay, AGS
# Format: cell-based
# COND: 168 h, 7 days, CTG, class symbols
# Text: The inhibitory effects of the compounds on 3D cell proliferation were investigated on KRAS G12D mutant human lung cancer cell A427, KRAS G12D mutant human gastric cancer cell AGS, KRAS G12D mutant human metastatic pancreatic cancer cell AsPc-1, KRAS G12D mutant human pancreatic cancer cell Panc 04.03, KRAS G12D mutant human pancreatic cancer cell HPAC, KRAS G12V mutant human lung squamous cell carcinoma cell SW900, and KRAS WT human gastric cancer cell MKN1. […]
MEASURED_PROPERTY: IC50

input: May I ask what IC50 has been recorded for CCc1c(F)ccc2cc(O)cc(-c3ncc4c(N5CC6CCC(C5)N6)nc(OCC5(CN6CCN(CC7CCC8(CC7)CCN(C(=O)c7ccc(OC)c(N9CCC(=O)NC9=O)c7)CC8)CC6)CC5)nc4c3F)c12 ?
output: ≤ 0.05 µM

input: Now consider C#Cc1c(F)ccc2cc(O)cc(-c3ncc4c(N5CC6CCC(C5)N6)nc(OCC5(CN6CCN(CC7CCC8(CC7)CCN(C(=O)c7ccc(OC)c(N9CCC(=O)NC9=O)c7)CC8)CC6)CC5)nc4c3F)c12 .
output: ≤ 0.05 µM

input: Now consider Cc1ccc2[nH]ncc2c1-c1ncc2c(N3CC4CCC(C3)N4)nc(OCC3(CN4CCN(CC5CCC6(CC5)CCN(C(=O)c5ccc(Cl)c(N7CCC(=O)NC7=O)c5)CC6)CC4)CC3)nc2c1F .
output: 1 to 10 µM

input: Now consider CCc1c(F)ccc2cc(O)cc(-c3ncc4c(N5CC6CCC(C5)N6)nc(OCC5(CN6CCN(CC7CCC8(CC7)CCN(C(=O)c7ccc(Cl)c(N9CCC(=O)NC9=O)c7)CC8)CC6)CC5)nc4c3F)c12 .
output: ≤ 0.05 µM

input: Now consider C#Cc1c(F)ccc2cc(O)cc(-c3ncc4c(N5CC6CCC(C5)N6)nc(OCC5(CN6CCN(CCCC7CCN(C(=O)c8ccc(OC)c(N9CCC(=O)NC9=O)c8)CC7)CC6)CC5)nc4c3F)c12 .
output: ≤ 0.05 µM

input: Now consider C#Cc1c(F)ccc2cc(O)cc(-c3ncc4c(N5CC6CCC(C5)N6)nc(OCC5(CN6CCN(CCCCC7CCC8(CC7)CCN(C(=O)c7ccc(Cl)c(N9CCC(=O)NC9=O)c7)CC8)CC6)CC5)nc4c3F)c12 .
output: ≤ 0.05 µM

input: Now consider CCc1c(F)ccc2cc(O)cc(-c3ncc4c(N5CC6CCC(C5)N6)nc(OCC5(CN6CCN(CC7CCC8(CC7)CCN(C(=O)c7ccc(C)c(N9CCC(=O)NC9=O)c7)CC8)CC6)CC5)nc4c3F)c12 .
output: ≤ 0.05 µM

input: Now consider C#Cc1c(F)ccc2cc(O)cc(-c3ncc4c(N5CC6CCC(C5)N6)nc(OCC5(CN6CC(CN7CCC8(CC7)CCN(C(=O)c7ccc(OC)c(N9CCC(=O)NC9=O)c7)CC8)C6)CC5)nc4c3F)c12 .
output: 0.1 to 0.5 µM

input: Now consider C#Cc1c(F)ccc2cc(O)cc(-c3ncc4c(N5CC6CCC(C5)N6)nc(OCC5(CN6CCN(CC7CCC8(CC7)CCN(C(=O)c7ccc(F)c(N9CCC(=O)NC9=O)c7)CC8)CC6)CC5)nc4c3F)c12 .
output: ≤ 0.05 µM
